What IC50 was measured for each of the following?
measured_on: UniProtKB Q9UBN7
Sequence (Q9UBN7 1-1215): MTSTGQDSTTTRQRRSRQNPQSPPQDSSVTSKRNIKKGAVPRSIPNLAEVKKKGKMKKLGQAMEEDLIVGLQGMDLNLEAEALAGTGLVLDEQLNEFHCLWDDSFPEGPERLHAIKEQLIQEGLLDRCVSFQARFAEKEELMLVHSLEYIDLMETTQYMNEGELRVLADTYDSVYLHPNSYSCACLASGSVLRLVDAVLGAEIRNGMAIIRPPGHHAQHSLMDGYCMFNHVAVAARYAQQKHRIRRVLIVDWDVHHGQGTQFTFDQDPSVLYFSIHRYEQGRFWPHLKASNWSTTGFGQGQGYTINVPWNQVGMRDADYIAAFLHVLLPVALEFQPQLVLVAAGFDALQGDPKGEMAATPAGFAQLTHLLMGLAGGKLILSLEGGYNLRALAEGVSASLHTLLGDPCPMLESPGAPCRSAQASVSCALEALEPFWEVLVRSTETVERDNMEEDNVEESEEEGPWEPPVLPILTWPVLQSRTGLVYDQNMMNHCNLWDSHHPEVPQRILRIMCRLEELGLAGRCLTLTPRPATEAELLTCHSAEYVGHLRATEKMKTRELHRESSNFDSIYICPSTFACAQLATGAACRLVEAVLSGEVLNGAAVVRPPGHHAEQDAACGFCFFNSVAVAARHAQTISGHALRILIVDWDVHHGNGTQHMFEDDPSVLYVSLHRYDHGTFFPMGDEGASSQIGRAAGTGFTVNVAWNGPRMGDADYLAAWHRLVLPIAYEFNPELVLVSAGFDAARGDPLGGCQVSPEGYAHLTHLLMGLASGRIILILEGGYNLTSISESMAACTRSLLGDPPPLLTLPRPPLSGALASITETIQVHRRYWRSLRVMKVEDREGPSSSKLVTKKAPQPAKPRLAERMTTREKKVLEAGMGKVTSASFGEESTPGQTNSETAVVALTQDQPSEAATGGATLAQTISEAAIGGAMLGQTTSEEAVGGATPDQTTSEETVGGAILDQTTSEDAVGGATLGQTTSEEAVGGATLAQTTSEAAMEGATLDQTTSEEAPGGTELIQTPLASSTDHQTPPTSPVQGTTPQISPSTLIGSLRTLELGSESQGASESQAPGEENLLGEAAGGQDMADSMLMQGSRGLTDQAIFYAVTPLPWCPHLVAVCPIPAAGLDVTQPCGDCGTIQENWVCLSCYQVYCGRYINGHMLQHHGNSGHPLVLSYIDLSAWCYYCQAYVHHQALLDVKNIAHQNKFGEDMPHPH
experiment_description: HDAC inhibition assay (fluorogenic peptide, Reaction Biology)
assay_context: tested once, ten-dose starting at 30 µM
# output: numeric value plus its unit

Study these solved cases before continuing.
Kindly note the recorded IC50 for CC(C)NC(=O)C1CCC(n2c(=NC(=O)c3ccccc3)[nH]c3cc(C=CC(=O)NO)ccc32)CC1 (stereo not drawn) , which is 1.03 µM

Kindly note the recorded IC50 for CC(C)NC(=O)[C@H]1CC[C@@H](n2/c(=N/C(=O)c3ccccc3)[nH]c3cc(NC(=O)CCCCCCC(=O)NO)ccc32)CC1 , which is 0.1 µM

Kindly note the recorded IC50 for CCCC(=O)/N=c1\[nH]c2cc(/C=C/C(=O)NO)ccc2n1CCCC(=O)NC(C)C , which is 0.21 µM

Kindly note the recorded IC50 for CC(C)NC(=O)CCCn1/c(=N/C(=O)c2ccccc2)[nH]c2cc(/C=C/C(=O)NO)ccc21 , which is 0.81 µM

Kindly note the recorded IC50 for CC(C)NC(=O)[C@H]1CC[C@@H](n2/c(=N/C(=O)c3ccccc3)[nH]c3ccc(/C=C/C(=O)NO)cc32)CC1 , which is 2.34 µM

// next entry
Kindly note the recorded IC50 for CC(C)NC(=O)CCCn1/c(=N/C(=O)c2cc(F)cc(F)c2)[nH]c2cc(/C=C/C(=O)NO)ccc21 , which is 2.47 µM
